The following are reported pIC50 results, target or system Full length Human HDAC2 (Homo sapiens, UniProt Q92769).
pIC50: −log10 of the molar value.

Some compounds with known pIC50 results, for comparison:
Cc1ccnc(C2CCN(C(=O)Nc3nc(-c4ccc(F)cc4F)ccc3N)C2)n1 (stereo not shown) [Compound 10]
6.00 to 6.30
Cn1ccnc1CC1CCN(C(=O)Nc2nc(-c3ccc(F)cc3F)ccc2N)C1 (stereo not shown) [Compound 36]
6.00 to 6.30
Nc1ccc(-c2ccc(F)cc2F)nc1NC(=O)N1CCC(Cc2ncccn2)C1 (stereo not shown) [Compound 24]
5.70 to 6.00

// below: pIC50 requested for another compound
Prompt line: Can you look up the measured pIC50 of Nc1ccc(-c2ccc(F)cc2F)nc1NC(=O)N1CCC(c2ncc(F)cn2)C1 (single isomer, unassigned) [Compound 14E1] for me?
Response line: 6.00 to 6.30
